Assay target: SpNic (Streptococcus pneumoniae nicotinamidase) (Streptococcus pneumoniae)
Format: biochemical
Experimental context: footnote b: HPLC assay, 500 µM analogue, pH 7.3, 37 °C
Task for the reader: assign each of the following molecules its reported Relative rate (nicotinamide = 1.00).
Please give only the number in your answer, with no unit.

Ask: Relative rate (nicotinamide = 1.00) lookup needed for O=C(Oc1ccccc1)c1cccnc1 [compound 13, phenylnicotinate] , thanks.
Result: 0.031

Ask: Need Relative rate (nicotinamide = 1.00), item NC(=O)c1ccncc1 [compound 8, isonicotinamide]
Result: 0

Ask: Using the record for COc1ccncc1C(N)=O [compound 7, 4-Methoxynicotinamide] , report its Relative rate (nicotinamide = 1.00).
Result: 0.065

Ask: // lookup Relative rate (nicotinamide = 1.00) for COc1cncc(C(N)=O)c1 [compound 2, 5-Methoxynicotinamide]
Result: 1.37

Ask: Recorded Relative rate (nicotinamide = 1.00) for NC(=O)c1cccnc1Cl [compound 3, 2-chloronicotinamide] , please?
Result: 0

Ask: // returns reported Relative rate (nicotinamide = 1.00) for input CCOC(=O)c1cccnc1 [compound 12, ethylnicotinate]
Result: 0.0086

Ask: Which value of Relative rate (nicotinamide = 1.00) has been reported for C[n+]1ccc(C(N)=O)cc1 [compound 15, 1-methyl isonicotinamide] in the records?
Result: 0

Ask: Name the recorded Relative rate (nicotinamide = 1.00) for NC(=O)c1ccc(Cl)nc1 [compound 4, 6-chloronicotinamide] .
Result: 0.018

Ask: Consider the molecule shown here: C[n+]1cccc(C(N)=O)c1 [compound 14, 1-Methylnicotinamide] What is its recorded Relative rate (nicotinamide = 1.00)?
Result: 0

Ask: For the molecule COC(=O)c1cccnc1 [compound 11, methylnicotinate] , what Relative rate (nicotinamide = 1.00) is on record?
Result: 0.035

Ask: Which Relative rate (nicotinamide = 1.00) value belongs to NC(=O)c1ccnc(N)c1 [compound 9, 2-Aminoisonicotinamide] ?
Result: 0

----------
Assay target: PfNic (Plasmodium falciparum nicotinamidase) (Plasmodium falciparum)
Assay type: biochemical
Experimental context: footnote b: HPLC assay, 500 µM analogue, pH 7.3, 37 °C
Kindly supply the reported Relative rate (nicotinamide = 1.00) values for the records listed here.

Ask: Name the recorded Relative rate (nicotinamide = 1.00) for C[n+]1ccc(C(N)=O)cc1 [compound 15, 1-methyl isonicotinamide] .
Result: 0

Ask: I would be grateful if you could share the reported Relative rate (nicotinamide = 1.00) for O=C(Oc1ccccc1)c1cccnc1 [compound 13, phenylnicotinate] .
Result: 0.13

Ask: Please look up its Relative rate (nicotinamide = 1.00): C[n+]1cccc(C(N)=O)c1 [compound 14, 1-Methylnicotinamide]
Result: 0

Ask: I am curious: what Relative rate (nicotinamide = 1.00) value has been reported for COc1ccncc1C(N)=O [compound 7, 4-Methoxynicotinamide] ?
Result: 0.12

Ask: Which Relative rate (nicotinamide = 1.00) reading was recorded for the molecule NC(=O)c1cccnc1Cl [compound 3, 2-chloronicotinamide] ?
Result: 0

Ask: Query (molecule): NC(=O)c1ccncc1 [compound 8, isonicotinamide] ; field requested: Relative rate (nicotinamide = 1.00)
Result: 0

Ask: Given COC(=O)c1cccnc1 [compound 11, methylnicotinate] , state its recorded Relative rate (nicotinamide = 1.00).
Result: 65.0

Ask: Find the recorded Relative rate (nicotinamide = 1.00) belonging to CCOC(=O)c1cccnc1 [compound 12, ethylnicotinate] and report it.
Result: 0.023

Ask: Which Relative rate (nicotinamide = 1.00) is listed for NC(=O)c1ccc(Cl)nc1 [compound 4, 6-chloronicotinamide] ?
Result: 0

Ask: Relative rate (nicotinamide = 1.00) lookup needed for NC(=O)c1ccnc(N)c1 [compound 9, 2-Aminoisonicotinamide] , thanks.
Result: 0

Ask: What value of measured Relative rate (nicotinamide = 1.00) is listed for COc1cncc(C(N)=O)c1 [compound 2, 5-Methoxynicotinamide] ?
Result: 6.46
